pIC50 overview
# systemUnderTest: Norepinephrine (NE) uptake (Rattus norvegicus, UniProt Q9WTR4)
# assayProcedure: Norepinephrine (NE) uptake inhibitory activity using rat brain synaptosome (hippocampus)
# Assay type: biochemical
# particulars: tritium-labeled NE 12 nM, 37° C. ten minutes, read-out: 50% inhibitory concentration
pIC50 field: float, defined as -log10 of concentration (mol/L).

1) CC1(C)CN(c2ccc(F)c3occc23)[C@H]2CCCC[C@H]2N1 ... 9.30

Task: I have this compound here, CC1(C)CN(c2ccc3sccc3c2)[C@@H]2CCC[C@@H]2N1 (racemic) , and I need its recorded pIC50.
Result: 8.02

Task: I have this compound here, CC1(C)CN(c2ccc(Cl)c(Cl)c2)[C@H]2CCC[C@@H]2N1 (racemic) , and I need its recorded pIC50.
Result: 7.96

Source: patent US11273168B2
